Quick list: inhibition at 10 µM per entry.
target: human COX-2 (Homo sapiens); construct: purchased Biovision, Zurich, Switzerland; assay: COX-2 inhibition assay (fluorometric inhibitor screening kit); type: biochemical; conditions: 10^−5 M; mean of three experiments ± SD; read-out: COX-2 Inhibition (%)
Numeric only. Scale: %

| record-smiles | system-name | measure-name | unit-tag | numeric-value |
| --- | --- | --- | --- | --- |
| COc1ccc(-c2nc(NCc3nc4ccccc4[nH]3)nc(OC)c2C#N)cc1 | human COX-2 (Homo sapiens) | inhibition at 10 µM | % | 71.2 |
| COc1ccc(-c2nc(NCc3cc4ccccc4s3)nc(OC)c2C#N)cc1 | human COX-2 (Homo sapiens) | inhibition at 10 µM | % | 38.3 |
| COc1ccc(-c2nc(NS(=O)(=O)c3ccc(C(F)(F)F)cc3)nc(OC)c2C#N)cc1 | human COX-2 (Homo sapiens) | inhibition at 10 µM | % | 41.8 |
| COc1ccc(-c2nc(NS(=O)(=O)c3ccc(C(C)(C)C)cc3)nc(OC)c2C#N)cc1 | human COX-2 (Homo sapiens) | inhibition at 10 µM | % | 42.1 |
| COc1ccc(-c2nc(NS(=O)(=O)c3ccc(C)cc3)nc(OC)c2C#N)cc1 | human COX-2 (Homo sapiens) | inhibition at 10 µM | % | 40.2 |
| COc1ccc(-c2nc(NCc3nc4ccccc4s3)nc(OC)c2C#N)cc1 | human COX-2 (Homo sapiens) | inhibition at 10 µM | % | 74.3 |

Look at this compound and give its reported inhibition at 10 µM. COc1ccc(-c2nc(NS(=O)(=O)c3ccccc3)nc(OC)c2C#N)cc1
40.1

I'd like to know its inhibition at 10 µM. The compound in question is COc1ccc(-c2nc(NCc3nc4ccccc4o3)nc(OC)c2C#N)cc1
40.3

----------
Reported pIC50 values for a set of compounds
system: HepG2 cells (liver carcinoma); assay: MTT cytotoxicity assay, HepG2; conditions: Homo sapiens, HepG2, 24 h, read-out: Cytotoxicity IC50 HepG2
Scale for pIC50: -log10 of concentration given in mol/L; no unit attached.

| compound | pIC50 |
| --- | --- |
| COc1cccc2c1C(=O)c1c(O)c3c(c(O)c1C2=O)C[C@@](O)(C(=O)CO)C[C@@H]3O[C@H]1C[C@H](N)[C@H](O)[C@H](C)O1 [Doxorubicin, doxorubicin, reference compound] | 7.60 |
| COc1ccc(-c2nc(NS(=O)(=O)c3ccc(C(F)(F)F)cc3)nc(OC)c2C#N)cc1 | 8.05 |
| COc1ccc(-c2nc(NCc3nc4ccccc4o3)nc(OC)c2C#N)cc1 | 7.66 |

Quick check: pIC50 of COc1ccc(-c2nc(NS(=O)(=O)c3ccc(C)cc3)nc(OC)c2C#N)cc1 ?
7.92

----------
biological target: human COX-2 (Homo sapiens); construct: purchased Biovision, Zurich, Switzerland; assay: COX-2 inhibition assay (fluorometric inhibitor screening kit); assay type: biochemical; details: 10^−6 M; mean of three experiments ± SD; read-out: COX-2 Inhibition (%)
measure-name: inhibition at 1 µM (%)
Value expressed in %; do not type the unit.

Known results for molecules:
| record-smiles | inhibition at 1 µM [%] |
| --- | --- |
| COc1ccc(-c2nc(NS(=O)(=O)c3ccc(C)cc3)nc(OC)c2C#N)cc1 | 36.2 |
| COc1ccc(-c2nc(NS(=O)(=O)c3ccc(C(F)(F)F)cc3)nc(OC)c2C#N)cc1 | 35.9 |
| COc1ccc(-c2nc(NCc3nc4ccccc4o3)nc(OC)c2C#N)cc1 | 33.3 |
| COc1ccc(-c2nc(NCc3nc4ccccc4[nH]3)nc(OC)c2C#N)cc1 | 62.5 |
| COc1ccc(-c2nc(NS(=O)(=O)c3ccccc3)nc(OC)c2C#N)cc1 | 30.2 |

Data request, read-out inhibition at 1 µM, for COc1ccc(-c2nc(NCc3nc4ccccc4s3)nc(OC)c2C#N)cc1
57.1

So what's the measured inhibition at 1 µM for this one? COc1ccc(-c2nc(NCc3cc4ccccc4s3)nc(OC)c2C#N)cc1
31.6

I would be grateful if you could share the reported inhibition at 1 µM for COc1ccc(-c2nc(NS(=O)(=O)c3ccc(C(C)(C)C)cc3)nc(OC)c2C#N)cc1 .
28.7

----------
Target: human COX-2 (Homo sapiens)
Construct: purchased Biovision, Zurich, Switzerland
Sequence (P35354 18-604): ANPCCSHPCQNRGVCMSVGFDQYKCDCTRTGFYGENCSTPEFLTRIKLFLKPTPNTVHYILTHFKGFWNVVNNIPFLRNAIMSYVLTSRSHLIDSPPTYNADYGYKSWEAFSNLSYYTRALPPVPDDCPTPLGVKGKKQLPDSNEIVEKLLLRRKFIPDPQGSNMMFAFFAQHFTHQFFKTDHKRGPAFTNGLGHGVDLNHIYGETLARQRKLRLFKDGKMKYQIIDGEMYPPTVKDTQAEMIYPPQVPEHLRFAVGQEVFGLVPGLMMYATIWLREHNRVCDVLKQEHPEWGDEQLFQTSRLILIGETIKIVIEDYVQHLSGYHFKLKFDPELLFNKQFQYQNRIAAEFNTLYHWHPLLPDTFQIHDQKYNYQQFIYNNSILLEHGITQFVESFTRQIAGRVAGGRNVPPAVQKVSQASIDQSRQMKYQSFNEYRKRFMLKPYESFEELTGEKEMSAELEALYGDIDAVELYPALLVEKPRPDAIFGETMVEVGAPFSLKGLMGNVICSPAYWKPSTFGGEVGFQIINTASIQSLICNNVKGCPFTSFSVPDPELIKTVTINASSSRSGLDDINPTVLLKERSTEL
Experiment: COX-2 inhibition assay (fluorometric inhibitor screening kit)
Type: biochemical
Conditions: 10^−7 M; mean of three experiments ± SD; read-out: COX-2 Inhibition (%)
inhibition at 0.1 µM values, listed per item
Field: numeric (%). Do not append units.

Recorded inhibition at 0.1 µM, per entry:
| compound | system-name | numeric-value |
| --- | --- | --- |
| COc1ccc(-c2nc(NCc3nc4ccccc4[nH]3)nc(OC)c2C#N)cc1 [Compound 3a] | human COX-2 (Homo sapiens) | 41.1 |
| COc1ccc(-c2nc(NCc3cc4ccccc4s3)nc(OC)c2C#N)cc1 [Compound 3d] | human COX-2 (Homo sapiens) | 21.5 |
| COc1ccc(-c2nc(NS(=O)(=O)c3ccc(C(F)(F)F)cc3)nc(OC)c2C#N)cc1 [Compound 5d] | human COX-2 (Homo sapiens) | 23.1 |
| COc1ccc(-c2nc(NS(=O)(=O)c3ccc(C)cc3)nc(OC)c2C#N)cc1 [Compound 5b] | human COX-2 (Homo sapiens) | 24.7 |
| COc1ccc(-c2nc(NS(=O)(=O)c3ccc(C(C)(C)C)cc3)nc(OC)c2C#N)cc1 [Compound 5c] | human COX-2 (Homo sapiens) | 20.3 |
| COc1ccc(-c2nc(NCc3nc4ccccc4o3)nc(OC)c2C#N)cc1 [Compound 3b] | human COX-2 (Homo sapiens) | 22.4 |
| COc1ccc(-c2nc(NS(=O)(=O)c3ccccc3)nc(OC)c2C#N)cc1 [Compound 5a] | human COX-2 (Homo sapiens) | 23.6 |

The record that follows has no inhibition at 0.1 µM shown yet.
Quick one: inhibition at 0.1 µM for COc1ccc(-c2nc(NCc3nc4ccccc4s3)nc(OC)c2C#N)cc1 [Compound 3c] ?
37.6

----------
Protein target, amino acids: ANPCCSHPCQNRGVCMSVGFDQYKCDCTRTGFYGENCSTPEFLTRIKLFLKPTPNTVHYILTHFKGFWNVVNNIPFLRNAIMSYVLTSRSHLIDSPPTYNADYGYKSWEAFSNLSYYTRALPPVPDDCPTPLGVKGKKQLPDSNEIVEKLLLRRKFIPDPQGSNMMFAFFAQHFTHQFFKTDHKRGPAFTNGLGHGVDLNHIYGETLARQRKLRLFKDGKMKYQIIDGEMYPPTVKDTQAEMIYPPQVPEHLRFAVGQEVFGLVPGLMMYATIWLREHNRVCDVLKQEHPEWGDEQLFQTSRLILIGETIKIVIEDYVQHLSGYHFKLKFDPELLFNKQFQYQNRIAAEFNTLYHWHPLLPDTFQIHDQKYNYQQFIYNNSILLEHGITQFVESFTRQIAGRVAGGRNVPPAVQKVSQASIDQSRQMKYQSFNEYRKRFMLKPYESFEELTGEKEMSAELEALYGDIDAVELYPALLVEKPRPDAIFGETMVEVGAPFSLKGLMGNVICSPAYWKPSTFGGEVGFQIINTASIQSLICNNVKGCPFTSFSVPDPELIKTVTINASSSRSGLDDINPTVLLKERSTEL
measure-name: IC50 (nM)
Supply the numeric figure in nM, leaving out any unit text.

Some solved cases for reference:
| record-smiles | unit-tag | IC50 |
| --- | --- | --- |
| COc1ccc(-c2nc(NCc3nc4ccccc4[nH]3)nc(OC)c2C#N)cc1 | nM | 230 |
| COc1ccc(-c2nc(NS(=O)(=O)c3ccccc3)nc(OC)c2C#N)cc1 | nM | 260 |

Field: next compound
# input compound: COc1ccc(-c2nc(NS(=O)(=O)c3ccc(C)cc3)nc(OC)c2C#N)cc1 ; wanted: its IC50
180
